- TARGET OF ASSAY: human integrin protein αvβ3 (human) (UniProt P06756)
- ASSAY TEXT: SPR
[ ]: non-standard residue; d: D form.
Measured koff by item
ASSAY READOUT: koff (s⁻¹)

binder="cyclo(RGD[dF]C) (also: conjugated to G5 PAMAM dendrimer, 2 peptides per dendrimer) [G5-2RGD (generation 5 PAMAM dendrimer displaying 2 cyclic RGD peptides)]" assay_readout=koff value_reported=0.00132
binder="cyclo(RGD[dF]C) (also: conjugated to G5 PAMAM dendrimer, 7 peptides per dendrimer) [G5-7RGD (generation 5 PAMAM dendrimer displaying 7 cyclic RGD peptides)]" assay_readout=koff value_reported=0.00155
binder="cyclo(RGD[dF]C) (also: conjugated to G5 PAMAM dendrimer, 10 peptides per dendrimer) [G5-10RGD (generation 5 PAMAM dendrimer displaying 10 cyclic RGD peptides)]" assay_readout=koff value_reported=0.00254
binder="cyclo(RGD[dF]C) (also: conjugated to G5 PAMAM dendrimer, 3 peptides per dendrimer) [G5-3RGD (generation 5 PAMAM dendrimer displaying 3 cyclic RGD peptides)]" assay_readout=koff value_reported=0.00136

All figures here come from paper PMC3193538.
